Values were extracted from PubChem BioAssay.

# protocol.text: endothelial E-selectin expression blockers – imaging, HUVEC, immunofluorescence, MLSMR starter and 10KST1 sets, primary screen (AID 487);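 further: signal is fraction of cell area covered by stained E-selectin grains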
# assay.context: HUVEC TNFalpha-induced E-selectin immunofluorescence imaging, at 2 µM; active compounds read high
Listed here are compounds together with their documented inhibition.
Write the answer as a number in %, unit excluded.

Observe how each entry below is paired with its result.
COc1cc(C(=O)Nc2ccc(-n3cnnn3)c(C)c2)cc(OC)c1OC : -94.5
Fc1ccccc1C(c1nnnn1Cc1ccc2c(c1)OCO2)N1CCN(Cc2ccccc2)CC1 (stereo unspecified) : 30.7
Cc1cccc(CC(=O)Nc2c3c(nn2-c2cccc(Cl)c2)CS(=O)C3)c1 (stereo unspecified) : -27.9
CCCCOc1ccc(CSc2n[nH]c(C)n2)cc1 : 5.3
O=C(c1ccc(Cl)cc1)N1CCCCC(Sc2nnc(-c3ccc4c(c3)OCO4)o2)C1=O (stereo unspecified) : -71.6

[in] Can you share its inhibition? I mean this compound: "COCCNC(=O)CCc1nc(-c2ccccc2)no1"
[out] -98.3

[in] Subsequent entry: Cc1ccc(N2C(=O)c3ccccc3C2Nc2cccnc2)nc1 (stereo unspecified)
[out] -91.7

[in] What do we get for "CCN(Cc1cc2ccccc2[nH]c1=O)S(=O)(=O)c1ccccc1" ?
[out] 38.9

[in] // next record O=C1C2ON(c3ccc(Cl)cc3)C(c3ccco3)C2C(=O)N1c1ccccc1 (stereo unspecified)
[out] -106

[in] Proceed to "O=c1c2ccccc2nc(SCc2nnc(-c3ccccc3Br)o2)n1-c1ccccc1"
[out] -18.3

[in] Next: "COc1ccc(C2(C(=O)N3CCCC3)CCOCC2)cc1OC"
[out] 30.4

[in] Further, for "COc1ccc(-c2nc(C#N)c(N3CCOCC3)o2)cc1OC" ?
[out] -16.3

[in] Further, for "CC(=O)Nc1ccc(N=Cc2ccc[nH]2)cc1" ?
[out] 9.1

[in] Input COCC(C)NC(=O)NC(=O)c1ccc(Cl)cc1 (stereo unspecified)
[out] -67.6

[in] Please answer likewise for "COc1ccccc1N1CCN(Cc2nc(N)nc(Nc3ccc(C)c(Cl)c3)n2)CC1"
[out] -5.6

[in] Now consider "CC1=Nn2c(nnc2-c2ccccn2)SC1" and answer again.
[out] -158

[in] Same read-out for CCOC(=O)C1CCCN(C(=O)c2ccc(CS(=O)(=O)c3ccc(Br)cc3)o2)C1 (stereo unspecified) ?
[out] -61.3

[in] O=C(O)C1C2C=CC(C3CC23)C1C(=O)NCCc1ccccc1 (stereo unspecified) , same question.
[out] -50

[in] Also need "O=C(Nc1ncnc2sc3c(c12)CCC3)c1ccco1" , thanks.
[out] -12.5

[in] Next entry: "Cc1occc1-c1nc(-c2ccncc2)no1"
[out] -46.6

[in] Would you kindly repeat that for O=C(c1cc2n(n1)C(C(F)(F)F)CC(c1ccc(Cl)cc1)N2)N1CCCC1 (stereo unspecified) ?
[out] -9.7

[in] Subsequent entry: O=C(Nn1cnnc1)C1Cc2ccccc2CN1S(=O)(=O)c1ccc(F)cc1 (stereo unspecified)
[out] 0.9

[in] Another compound to check: COc1ccccc1-c1nc2n(n1)C(c1ccc(Cl)cc1)C(C(N)=O)=C(C)N2 (stereo unspecified)
[out] -37.7

[in] Here is the next compound: "CNc1nnc(-c2cccc(N(C)C)c2)s1"
[out] -67.7

[in] Now the same for CCOC(=O)C1=C(C)N=c2s/c(=C\c3cccn3C)c(=O)n2C1c1cccc(OC)c1OC (stereo unspecified)
[out] -38

[in] "N#Cc1nc(-c2ccco2)oc1NCc1ccco1" , same question.
[out] -12.2

[in] Query "COc1cc2c(cc1NC(=O)CN1CCN(S(=O)(=O)c3ccc(F)cc3)CC1)oc1ccccc12" next
[out] -33.6

* * *

inhibition values by entry
# protocol.text: TLR3 IRF3 reporter activation blockers – cell-based, poly I:C stimulus, luciferase, 10K MLSCN set, primary screen (AID 602277)
# assay.context: HEK293-TLR3 RL24 IRF3 luciferase reporter, at 10 µM, active compounds read high
Numeric only. Scale: %

Example molecules with recorded inhibition:
Cn1c(=O)[nH]c(=O)c2c1nc(CN1CCN(c3cccc(Cl)c3)CC1)n2CCc1ccccc1 : -0.338
CCCNC(=O)CS(=O)(=O)Cc1nc(-c2cccc(OC)c2)oc1C : -7.6
Cc1cc(C)c2ccc(N)nc2c1O : 29.8

[in] Query (molecule): "FC(F)(F)c1cc(-c2ccccc2)nc(N2CCCCC2)n1" ; field requested: inhibition
[out] 12.8

* * *

// inhibition lookup, one value per entry
# protocol.text: inhibitors of TNFa-induced NFkB p65 translocation, primary screen, imaging, HUVEC, MLSMR starter and 10KST1 sets (AID 438);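 further: compound added about 3h40 before a 20 min TNFalpha stimulation; signal is the nuclear over cytoplasmic p65 intensity ratio per well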
# assay.context: HUVEC TNFa-induced p65 nuclear translocation; at 2 µM, active compounds read high, 0% TNFa-plus-vehicle, 100% no-TNFa wells
State just the number; it will be interpreted in %.

The cases that follow already have their inhibition on record.
Cc1ccc(NC(=O)C2CC=CCC2C(=O)N2CCCCC2)cc1 (stereo not drawn) : -23.5
COC(=O)c1[nH]c2ccc(F)cc2c1NS(=O)(=O)c1ccc(OC)cc1OC : -11

[in] Return reported inhibition; argument: "CN(C)c1oc(-c2ccccc2Cl)nc1C#N"
[out] 4.3

[in] Moving on to Cc1cccc(N2C(=O)CC(N3CCN(c4cccc(C(F)(F)F)c4)CC3)C2=O)c1 (stereo not drawn)
[out] -7.2

* * *

# system.tested: Alpha-2C adrenergic receptor (Homo sapiens) (UniProt P18825)
# Sequence (P18825 whole entry, looked up): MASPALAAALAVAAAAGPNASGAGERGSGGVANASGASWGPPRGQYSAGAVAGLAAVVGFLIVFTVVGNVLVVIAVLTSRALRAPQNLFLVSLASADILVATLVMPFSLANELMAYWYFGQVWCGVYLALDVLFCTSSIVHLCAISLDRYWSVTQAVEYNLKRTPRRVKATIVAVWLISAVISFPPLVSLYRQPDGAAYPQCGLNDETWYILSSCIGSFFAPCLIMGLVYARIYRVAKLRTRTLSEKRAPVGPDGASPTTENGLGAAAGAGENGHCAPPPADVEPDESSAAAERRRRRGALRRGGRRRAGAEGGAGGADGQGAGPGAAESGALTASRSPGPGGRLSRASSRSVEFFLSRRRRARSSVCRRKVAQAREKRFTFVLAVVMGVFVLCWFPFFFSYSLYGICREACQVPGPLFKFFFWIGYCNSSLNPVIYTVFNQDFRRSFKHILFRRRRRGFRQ
# protocol.text: compounds altering alpha2C-coupled GIRK flux – cell-based, HEK293 alpha2C/GIRK1/2, thallium flux, primary screen (AID 624);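 further: slope of fluorescence ratio to pre-addition baseline per second over 15 to 24 s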
# assay.context: thallium flux BTC fluorescence, at 10 µM, actives lie on both sides
Output Satisfied for records whose slope is lower than 0.006, Not satisfied for records at or above 0.006.

Field: example entries. Status: answers known.
CCOc1ccc(NC(=O)CC2NCCNC2=O)cc1 (stereo not drawn) : Satisfied
O=C1CCn2nc(-c3ccc(Cl)cc3)cc2N1 : Not satisfied
CN(C(=O)c1ccco1)c1nnc(C23CC4CC(CC(C4)C2)C3)s1 : Satisfied
COCCNC(=O)c1snc2ccc(Cl)cc12 : Satisfied
CC(=O)Nc1cccc(OCC(O)Cn2cnc3ccccc32)c1 (stereo not drawn) : Not satisfied
Cc1cccc(Nc2ncc3c(n2)CC(c2ccco2)CC3=O)c1 (stereo not drawn) : Satisfied

[in] slope under 0.006? Item: CC12CN3CC(C)(CN(C1)C3c1ccc(Cl)cc1Cl)C2=O (stereo not drawn)
[out] Not satisfied

[in] And the next one, O=C(NCC(=O)N(Cc1cccs1)C(C(=O)NC1CCCC1)c1ccncc1)c1ccco1 (stereo not drawn) ?
[out] Satisfied

[in] // repeat for "O=C(c1ccc(-c2ccccc2)cc1)N1CCC(C(=O)N2CCCC2)CC1" and report
[out] Satisfied

* * *

Reported values of inhibition for individual entries
# protocol.text: inhibitors of TNFa-induced NFkB p65 translocation, primary screen, imaging, HUVEC, MLSMR starter and 10KST1 sets (AID 438);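 further: compound added about 3h40 before a 20 min TNFalpha stimulation; signal is the nuclear over cytoplasmic p65 intensity ratio per well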
# assay.context: HUVEC TNFa-induced p65 nuclear translocation; at 2 µM, active compounds read high, 0% TNFa-plus-vehicle, 100% no-TNFa wells
Active and inactive are the calls of the source.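 Rule for the calls: active = inhibition above 20% together with a positive visual image hit; inconclusive = visual image hit but inhibition not above 20%; inactive = no visual image hit.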

Please review the entries below; each comes with its answer.
CCOc1cccc2cc(C(=O)N3CCN(C/C=C/c4ccccc4)CC3)c(=O)oc12 : -3.6% (inactive)
Cc1noc(/C=C/N(C)C)c1S(=O)(=O)N1CCc2ccccc21 : 3.4% (inactive)

# ---- query compound ----
[in] // inhibition lookup, key: "Cc1c(NC(=O)c2ccc(Br)o2)c(=O)n(-c2ccccc2)n1C"
[out] -5.9% (inactive)

* * *

Reported inhibition values for a set of molecules
# protocol.text: TLR3 IRF3 reporter activation blockers – cell-based, poly I:C stimulus, luciferase, 10K MLSCN set, primary screen (AID 602277)
# assay.context: HEK293-TLR3 RL24 IRF3 luciferase reporter, at 10 µM, active compounds read high
Only the number, expressed in %, is required.

See these solved cases before continuing.
CCn1c(SCC(=O)Nc2cccc(C)c2)nc2c(c1=O)SC(C)C2 (stereo not drawn) : 25.9
O=C(Nc1ccc(N2CCOCC2)cc1)c1cc2ccccc2o1 : -187
CSc1nc2ccccc2c(=O)n1N : 19
COc1ccccc1OCCSc1nc2ccccc2c(=O)[nH]1 : -5.54
Cc1cc(C)cc(NC(=O)CSc2nnc(Cc3cccn3C)n2-c2ccc(F)cc2)c1 : 25.8
Cc1noc(C)c1CSc1nc2ccccc2s1 : -21.8
COc1ccc(-n2c(SCC(=O)N3CCCCC3C)nnc2-c2cccnc2)cc1 (stereo not drawn) : 9.8

Could you now look at the following molecule, please?
[in] Any idea what its inhibition is? The molecule is "COC(=O)COc1cccc(NC(=O)COc2ccccc2)c1"
[out] 20.7
